Data provenance: paper PMC2635646

assay: 1H-NMR titration of template/functional monomer complexation; format: binding; conditions: 1:1 complex of D with single monomer, d6-DMSO, 25 °C; read-out: apparent dissociation constant (app. Kdiss) of complex with MAA
Where a name gives a salt, the structure may show the parent alone.
Endpoint name: Kd (µM)
Express your answer in µM, writing the number without its unit.

Entry NCCc1ccc(O)c(O)c1 [D, Dopamine hydrochloride] ; Kd = 2120

====

test: Competitive ligand binding assay on DS-MIP with D as fluorescent probe; settings: 25 mg polymer, D 6.60 μM, 5 mL 4:1 methanol/water, 28 ± 1 °C, mean ± SD, n = 3
Structures can show the parent of a compound that is named as a salt.
Endpoint name: Ki (µM)
Express your answer in µM, writing the number without its unit.

Below, each entry is followed by its recorded Ki result.
{"columns": ["Molecule", "Endpoint name", "Recorded number"],
 "data": [
  ["CC(C)[C@@]1(NC(=O)[C@@H]2C=C3c4cccc5[nH]cc(c45)C[C@H]3N(C)C2)O[C@@]2(O)[C@@H]3CCCN3C(=O)[C@H](Cc3ccccc3)N2C1=O", "Ki", 141],
  ["CC(C)C[C@H]1C(=O)N2CCC[C@H]2[C@]2(O)O[C@](NC(=O)[C@@H]3C=C4c5cccc6[nH]cc(c56)C[C@H]4N(C)C3)(C(C)C)C(=O)N12", "Ki", 125],
  ["CCN(CC)C(=O)N[C@H]1C[C@@H]2c3cccc4[nH]cc(c34)C[C@H]2N(C)C1 [Terguride, terguride]", "Ki", 0.14],
  ["CCCN1C[C@H](CSC)C[C@@H]2c3cccc4[nH]cc(c34)C[C@H]21 [Pergolide, pergolide mesylate]", "Ki", 0.2]
]}

Entry `CC(C)[C@H]1C(=O)N2CCC[C@H]2[C@]2(O)O[C@](NC(=O)[C@@H]3C=C4c5cccc6[nH]cc(c56)C[C@H]4N(C)C3)(C(C)C)C(=O)N12` ; Ki = 217
